Some molecules, each annotated with its measured growth.
system: HOP-62 NSCLC; experiment: NCI-60 one-dose screen, 48 h (100 = growth as untreated, 0 = no growth, -100 = all killed); conditions: 10 µM unless noted
The panel holds about 83,000 compounds, 20% with a hit somewhere; the sample as a whole holds those more often.

| molecule | growth, % |
| --- | --- |
| CCc1cccc(Sc2cc(C(=O)N3Cc4ccc(OCCN(C)C)cc4C3)ccc2O)c1 | 71.5 |
| O=C(CN1CCN(c2cc3c(cc2F)c(=O)c(C(=O)O)cn3C2CC2)CC1)N/N=C/c1ccncc1 | 92.2 |
| CCCNc1nc2ccccc2c2c(=O)c3cccc(Cl)c3sc12 | 88.3 |
| COc1ccc(C2CC(c3ccc(Nc4nc(Nc5ccc(F)cc5)nc(Nc5ccc(F)cc5)n4)cc3)=NN2C(C)=O)cc1 (stereo not drawn) | 96.7 |
| O=C1NC(=Nc2ccc(O)cc2)S/C1=C\c1cccs1 | 46.7 |
| S=c1[nH]c2cc(Cl)ccc2o1 | 102 |
| CCOC(=O)c1c(-c2ccc(Cl)cc2)c(C#N)c2c(C#N)c(N)nn2c1N | 74.9 |
| O=C1NC(=C(Cl)Cl)/C(=N/S(=O)(=O)NCCc2c[nH]c3ccccc23)N1 | 56.9 |

meta.source: PubChem BioAssay (NCI)
